Target: PRKACA (PKA) (Homo sapiens, UniProt P17612)
Test: FRET-based coupled-enzyme protein kinase inhibition assay
Assay type: biochemical
Conditions: compound at 10 µM, 1% DMSO
Procedure: A biochemical assay was then performed in order to measure the protein kinase inhibition. It employed a fluorescence-based coupled-enzyme format and was based on the differential sensitivity of phosphorylated and non-phosphorylated peptides to proteolytic cleavage. […] A significant benefit of this ratiometric method for quantitating reaction progress is the elimination of well-to-well variations in FRET-peptide concentration and signal intensities. […]
Record form. Attribute: inhibition at 10 µM. Fill in for each entry.
Just so you know, I need the unit written after the number.

Solved entries:
[
  {
    "molecule": "Nc1ncnc2c1ncn2[C@@H]1O[C@H](COC(=O)NCCN2CCCC2=O)[C@@H](O)[C@H]1O",
    "result": "0%"
  },
  {
    "molecule": "Nc1ncnc2c1ncn2[C@@H]1O[C@H](COC(=O)N2CCN(Cc3ccccc3)CC2CO)[C@@H](O)[C@H]1O (stereo partly shown)",
    "result": "-1%"
  },
  {
    "molecule": "CC(C)N1CCC(NC(=O)OC[C@H]2O[C@@H](n3cnc4c(N)ncnc43)[C@H](O)[C@@H]2O)CC1",
    "result": "4%"
  },
  {
    "molecule": "Nc1ncnc2c1ncn2[C@@H]1O[C@H](COC(=O)N2CCC[C@H]2CO)[C@@H](O)[C@H]1O",
    "result": "-6%"
  },
  {
    "molecule": "CN(C)CCNC(=O)OC[C@H]1O[C@@H](n2cnc3c(N)ncnc32)[C@H](O)[C@@H]1O",
    "result": "-2%"
  },
  {
    "molecule": "Nc1ncnc2c1ncn2[C@@H]1O[C@H](COC(=O)NCCCc2nc3ccccc3[nH]2)[C@@H](O)[C@H]1O",
    "result": "21%"
  }
]

Now turn to the next molecule.
q: If you can, please state the reported inhibition at 10 µM value of Nc1ncnc2c1ncn2[C@@H]1O[C@H](COC(=O)N[C@@H]2CCN(Cc3ccccc3)C2)[C@@H](O)[C@H]1O .
a: 10%

###

target: IGF1R (Homo sapiens, UniProt P08069); test: FRET-based coupled-enzyme protein kinase inhibition assay; type: biochemical; conditions: compound at 10 µM, 1% DMSO
Sequence (P08069 31-1367, species assumed): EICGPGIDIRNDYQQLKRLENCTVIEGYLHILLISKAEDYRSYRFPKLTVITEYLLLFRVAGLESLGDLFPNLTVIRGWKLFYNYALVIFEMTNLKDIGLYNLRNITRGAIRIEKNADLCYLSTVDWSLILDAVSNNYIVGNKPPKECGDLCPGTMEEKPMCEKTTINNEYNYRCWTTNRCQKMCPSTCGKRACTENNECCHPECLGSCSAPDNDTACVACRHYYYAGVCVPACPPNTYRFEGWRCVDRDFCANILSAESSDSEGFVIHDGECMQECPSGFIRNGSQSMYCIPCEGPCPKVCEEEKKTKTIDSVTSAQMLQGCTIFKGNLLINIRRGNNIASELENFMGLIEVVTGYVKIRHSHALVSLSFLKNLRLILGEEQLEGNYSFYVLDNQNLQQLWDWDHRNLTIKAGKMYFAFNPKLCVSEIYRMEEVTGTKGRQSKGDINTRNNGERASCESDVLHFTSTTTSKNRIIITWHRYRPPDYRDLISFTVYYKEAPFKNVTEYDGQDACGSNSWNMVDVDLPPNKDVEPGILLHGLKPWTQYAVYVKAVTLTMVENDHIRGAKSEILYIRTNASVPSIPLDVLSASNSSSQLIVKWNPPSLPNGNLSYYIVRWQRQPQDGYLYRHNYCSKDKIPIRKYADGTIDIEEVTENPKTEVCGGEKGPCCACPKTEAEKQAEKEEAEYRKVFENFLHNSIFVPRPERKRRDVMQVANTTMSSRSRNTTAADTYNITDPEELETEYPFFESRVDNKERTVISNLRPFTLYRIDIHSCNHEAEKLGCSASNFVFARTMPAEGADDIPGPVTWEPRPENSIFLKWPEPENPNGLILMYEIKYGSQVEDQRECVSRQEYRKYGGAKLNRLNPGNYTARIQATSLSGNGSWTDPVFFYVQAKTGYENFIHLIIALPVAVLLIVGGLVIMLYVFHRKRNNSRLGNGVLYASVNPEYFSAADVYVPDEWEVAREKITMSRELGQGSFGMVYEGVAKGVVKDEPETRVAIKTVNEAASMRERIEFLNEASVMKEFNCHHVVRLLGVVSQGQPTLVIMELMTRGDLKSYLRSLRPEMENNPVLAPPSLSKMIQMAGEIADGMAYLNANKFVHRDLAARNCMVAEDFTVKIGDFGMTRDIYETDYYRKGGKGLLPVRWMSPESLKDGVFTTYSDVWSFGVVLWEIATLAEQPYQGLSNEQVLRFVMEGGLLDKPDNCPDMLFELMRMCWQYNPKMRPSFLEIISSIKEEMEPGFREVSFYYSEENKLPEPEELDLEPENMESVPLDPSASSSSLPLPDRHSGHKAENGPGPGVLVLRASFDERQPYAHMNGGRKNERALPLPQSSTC
reportedProperty: inhibition at 10 µM (%)
Numbers only, in %.

[
  {
    "compound": "Nc1ncnc2c1ncn2[C@@H]1O[C@H](COC(=O)N2CCN(C(=O)N3CCOCC3)CC2)[C@@H](O)[C@H]1O",
    "tgt": "IGF1R (Homo sapiens, UniProt P08069)",
    "unitsOfMeasure": "%",
    "measuredNumber": 2
  },
  {
    "compound": "N#CCCN1CCN(C(=O)OC[C@H]2O[C@@H](n3cnc4c(N)ncnc43)[C@H](O)[C@@H]2O)CC1",
    "tgt": "IGF1R (Homo sapiens, UniProt P08069)",
    "unitsOfMeasure": "%",
    "measuredNumber": 1
  },
  {
    "compound": "CN1CCN(CCNC(=O)OC[C@H]2O[C@@H](n3cnc4c(N)ncnc43)[C@H](O)[C@@H]2O)CC1",
    "tgt": "IGF1R (Homo sapiens, UniProt P08069)",
    "unitsOfMeasure": "%",
    "measuredNumber": 7
  },
  {
    "compound": "Nc1ncnc2c1ncn2[C@@H]1O[C@H](COC(=O)NCCN2CCCC2=O)[C@@H](O)[C@H]1O",
    "tgt": "IGF1R (Homo sapiens, UniProt P08069)",
    "unitsOfMeasure": "%",
    "measuredNumber": 4
  },
  {
    "compound": "Nc1ncnc2c1ncn2[C@@H]1O[C@H](COC(=O)NCCCc2nc3ccccc3[nH]2)[C@@H](O)[C@H]1O",
    "tgt": "IGF1R (Homo sapiens, UniProt P08069)",
    "unitsOfMeasure": "%",
    "measuredNumber": 0
  },
  {
    "compound": "CS(=O)(=O)N1CC2(CCN(C(=O)OC[C@H]3O[C@@H](n4cnc5c(N)ncnc54)[C@H](O)[C@@H]3O)CC2)c2ccccc21",
    "tgt": "IGF1R (Homo sapiens, UniProt P08069)",
    "unitsOfMeasure": "%",
    "measuredNumber": 8
  }
]

Provide the reported inhibition at 10 µM of each entry below, same order.
1. Nc1ncnc2c1ncn2[C@@H]1O[C@H](COC(=O)N2CCS(=O)(=O)CC2)[C@@H](O)[C@H]1O
2. C[C@@H](NC(=O)OC[C@H]1O[C@@H](n2cnc3c(N)ncnc32)[C@H](O)[C@@H]1O)c1ccc(Cl)cc1
3. Nc1ncnc2c1ncn2[C@@H]1O[C@H](COC(=O)N2CCN(Cc3ccccc3)CC2CO)[C@@H](O)[C@H]1O (stereo partly shown)
4. CN(C)CCNC(=O)OC[C@H]1O[C@@H](n2cnc3c(N)ncnc32)[C@H](O)[C@@H]1O

a:
11
11
2
8

Give inhibition at 10 µM for each of the items listed below.
1. Nc1ncnc2c1ncn2[C@@H]1O[C@H](COC(=O)N[C@@H]2CCN(Cc3ccccc3)C2)[C@@H](O)[C@H]1O
2. Nc1ncnc2c1ncn2[C@@H]1O[C@H](COC(=O)N2CCC(Cc3ccc(F)cc3)C2)[C@@H](O)[C@H]1O (stereo partly shown)
3. Nc1ncnc2c1ncn2[C@@H]1O[C@H](COC(=O)NC[C@H](O)CO)[C@@H](O)[C@H]1O
4. CC(C)N1CCC(NC(=O)OC[C@H]2O[C@@H](n3cnc4c(N)ncnc43)[C@H](O)[C@@H]2O)CC1
5. Nc1ncnc2c1ncn2[C@@H]1O[C@H](COC(=O)N2CCC[C@H]2CO)[C@@H](O)[C@H]1O

a:
1: 8; 2: 1; 3: 5; 4: -2; 5: 9

q: Can you share its inhibition at 10 µM? I mean this compound: Nc1ncnc2c1ncn2[C@@H]1O[C@H](COC(=O)N2CCN(CCc3ccccc3)CC2)[C@@H](O)[C@H]1O
a: 8

###

biological target: MAP2K1 (MEK1) (Homo sapiens, UniProt Q02750); test: FRET-based coupled-enzyme protein kinase inhibition assay; assay type: biochemical; conditions: compound at 10 µM, 1% DMSO
Sequence (Q02750 whole entry, species assumed): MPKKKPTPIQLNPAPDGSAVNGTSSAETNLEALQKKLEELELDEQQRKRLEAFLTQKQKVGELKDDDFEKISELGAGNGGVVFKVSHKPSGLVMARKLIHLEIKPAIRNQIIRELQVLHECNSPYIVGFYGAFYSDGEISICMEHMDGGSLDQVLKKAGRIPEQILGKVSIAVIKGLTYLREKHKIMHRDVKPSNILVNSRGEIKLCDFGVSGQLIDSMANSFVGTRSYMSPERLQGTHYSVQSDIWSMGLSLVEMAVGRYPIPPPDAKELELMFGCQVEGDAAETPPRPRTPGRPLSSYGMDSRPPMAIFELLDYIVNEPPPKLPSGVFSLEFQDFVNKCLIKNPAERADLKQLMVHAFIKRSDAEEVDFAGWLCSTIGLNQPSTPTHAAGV
Please go through the items and note down their inhibition at 10 µM.
Numbers only, in %.

[
  {
    "compound": "Nc1ncnc2c1ncn2[C@@H]1O[C@H](COC(=O)N[C@@H]2CCN(Cc3ccccc3)C2)[C@@H](O)[C@H]1O",
    "inhibition at 10 µM, %": 0
  }
]

Answer for every listed entry: what is its inhibition at 10 µM? The entries follow.
1. CC(C)N1CCC(NC(=O)OC[C@H]2O[C@@H](n3cnc4c(N)ncnc43)[C@H](O)[C@@H]2O)CC1
2. CS(=O)(=O)N1CC2(CCN(C(=O)OC[C@H]3O[C@@H](n4cnc5c(N)ncnc54)[C@H](O)[C@@H]3O)CC2)c2ccccc21
3. Nc1ncnc2c1ncn2[C@@H]1O[C@H](COC(=O)N2CCN(C(=O)N3CCOCC3)CC2)[C@@H](O)[C@H]1O
4. CN(C)CCNC(=O)OC[C@H]1O[C@@H](n2cnc3c(N)ncnc32)[C@H](O)[C@@H]1O

a:
1: -2; 2: 4; 3: -2; 4: -3

Kindly give each listed record's inhibition at 10 µM.
1. Nc1ncnc2c1ncn2[C@@H]1O[C@H](COC(=O)NCCCc2nc3ccccc3[nH]2)[C@@H](O)[C@H]1O
2. Nc1ncnc2c1ncn2[C@@H]1O[C@H](COC(=O)NCCN2CCCC2=O)[C@@H](O)[C@H]1O
3. Nc1ncnc2c1ncn2[C@@H]1O[C@H](COC(=O)N2CCC(Cc3ccc(F)cc3)C2)[C@@H](O)[C@H]1O (stereo partly shown)
4. N#CCCN1CCN(C(=O)OC[C@H]2O[C@@H](n3cnc4c(N)ncnc43)[C@H](O)[C@@H]2O)CC1
5. CN1CCN(CCNC(=O)OC[C@H]2O[C@@H](n3cnc4c(N)ncnc43)[C@H](O)[C@@H]2O)CC1

a:
1. 11
2. -3
3. -1
4. 3
5. -1

Quick batch: inhibition at 10 µM for everything below.
1. Nc1ncnc2c1ncn2[C@@H]1O[C@H](COC(=O)NC[C@H](O)CO)[C@@H](O)[C@H]1O
2. Nc1ncnc2c1ncn2[C@@H]1O[C@H](COC(=O)N2CCN(Cc3ccccc3)CC2CO)[C@@H](O)[C@H]1O (stereo partly shown)
3. Nc1ncnc2c1ncn2[C@@H]1O[C@H](COC(=O)N2CCS(=O)(=O)CC2)[C@@H](O)[C@H]1O
4. C[C@@H](NC(=O)OC[C@H]1O[C@@H](n2cnc3c(N)ncnc32)[C@H](O)[C@@H]1O)c1ccc(Cl)cc1
5. Nc1ncnc2c1ncn2[C@@H]1O[C@H](COC(=O)N2CCN(CCc3ccccc3)CC2)[C@@H](O)[C@H]1O
6. Nc1ncnc2c1ncn2[C@@H]1O[C@H](COC(=O)N2CCC[C@H]2CO)[C@@H](O)[C@H]1O

a:
[10, 1, 5, 4, 4, -3]
